ASSAY_DETAILS: Cytostatic effects on NHDF cells in the anti-HCMV cytopathogenicity test
Format: cell-based, human
ASSAY_CONDITIONS: human, concentration at which no visible cytostatic effects on NHDF cells are evident vs untreated cell control
Method: Anti-HCMV (Anti-Human Cytomegalovirus) Cytopathogenicity Tests The test compounds are employed as 50 millimolar (mM) solutions in dimethyl sulfoxide (DMSO). Ganciclovir®, Foscarnet® and Cidofovir® are used as reference compounds. […] The plates are then assessed visually using an overhead microscope (plaque multiplier from Technomara). […]
EXPERIMENTAL_READOUT: CC50 at 6 days
Could you write the number and then its unit?

Here is how some compounds turned out for CC50 at 6 days.
CCOC(=O)C1CCN(c2c(F)cc3c(=O)c(C(=O)NCc4ccc(Cl)cc4Cl)cn([C@H]4C[C@H]4F)c3c2OC)CC1 :: 23 µM
COc1c(N2CCC3(CC2)CNC(=O)C3)c(F)cc2c(=O)c(C(=O)NCc3ccc(OC(F)(F)F)cc3C)cn(CC(F)(F)F)c12 :: 19 µM
COc1c(N2CCC(C(=O)O)CC2)c(F)cc2c(=O)c(C(=O)NCc3ccc(OC(F)(F)F)cc3C)cn(CCF)c12 :: 94 µM
COc1c(N2CCC(C(=O)O)CC2)c(F)cc2c(=O)c(C(=O)NCc3ccc(OC(F)(F)F)cc3C)cn([C@@H]3C[C@@H]3F)c12 :: 47 µM
COc1c(N2CCC(C(=O)O)CC2)c(F)cc2c(=O)c(C(=O)NCc3ccc(OC(F)(F)F)cc3C)cn(C(C)CF)c12 (stereo not drawn) :: 106 µM

Kindly review the next compound as well.
Field request: CC50 at 6 days | item: COc1c(N2CCC(C(=O)O)CC2)c(F)cc2c(=O)c(C(=O)NCc3ccc(OC(F)(F)F)cc3C)cn(C3CCC3)c12
21 µM

====

Tested on: NHDF (human prepuce fibroblasts)
ASSAY_DETAILS: Cytostatic effects on NHDF cells in the anti-HCMV cytopathogenicity test
Assay type: cell-based
ASSAY_CONDITIONS: concentration at which no visible cytostatic effects on NHDF cells are evident vs untreated cell control; 6 days
Protocol: Anti-HCMV (Anti-Human Cytomegalovirus) Cytopathogenicity Tests The test compounds are employed as 50 millimolar (mM) solutions in dimethyl sulfoxide (DMSO). Ganciclovir®, Foscarnet® and Cidofovir® are used as reference compounds. […] The plates are then assessed visually using an overhead microscope (plaque multiplier from Technomara). […]
# Lookup of reported CC50 keyed by entry
Please respond with the number in µM and leave the unit unwritten.

COc1c(N2CCC(C(=O)O)CC2)c(F)cc2c(=O)c(C(=O)NCc3ccc(OC(F)(F)F)cc3C)cn(CC(F)(F)F)c12 [Example 76] :: 47

Kindly review the next compound as well.
Field request: CC50 | item: COc1c(N2CCC(C(=O)O)CC2)c(F)cc2c(=O)c(C(=O)NCc3ccc(OC(F)(F)F)cc3C)cn(CC(F)(F)F)c12 [Example 75]
47

====

ASSAY_DETAILS: Cytostatic effects on NHDF cells in the anti-HCMV cytopathogenicity test
Type: cell-based, human
ASSAY_CONDITIONS: human, concentration at which no visible cytostatic effects on NHDF cells are evident vs untreated cell control
EXPERIMENTAL_READOUT: CC50 at 6 days

Here is how some compounds turned out for CC50 at 6 days.
COc1c(N2CCC(C(=O)O)CC2)c(F)cc2c(=O)c(C(=O)NCc3ccc(OC(F)(F)F)cc3C)cn(CC(F)(F)F)c12 :: 86 µM
COc1c(N2CCC(C(N)=O)CC2)c(F)cc2c(=O)c(C(=O)NCc3ccc(Cl)cc3C)cn(CC(F)(F)F)c12 :: 21 µM
COc1c(N2CCC(C(=O)O)CC2)c(F)cc2c(=O)c(C(=O)NCc3ccc(OC(F)(F)F)cc3C)cn(CC(F)F)c12 :: 148 µM
COc1c(N2CCC(CC(=O)O)CC2)c(F)cc2c(=O)c(C(=O)NCc3ccc(OC(F)(F)F)cc3C)cn(CC(F)(F)F)c12 :: 94 µM
COc1c(N2CCC3(CC2)CNC(=O)C3)c(F)cc2c(=O)c(C(=O)NCc3ccc(OC(F)(F)F)cc3Cl)cn(CC(F)(F)F)c12 :: 21 µM

Field request: CC50 at 6 days | item: COc1c(N2CCCC(CC(=O)O)C2)c(F)cc2c(=O)c(C(=O)NCc3ccc(Cl)cc3Cl)cn(CC(F)(F)F)c12 (stereo not shown)
47 µM

Field request: CC50 at 6 days | item: CCOC(=O)C1CCN(c2c(F)cc3c(=O)c(C(=O)NCc4ccc(Cl)cc4Cl)cn(CC(F)(F)F)c3c2OC)CC1
94 µM

The reported measurements were obtained from patent US7977349B2.
